Assay: AUC (0 to last) in mouse at 20 mg/kg, po
Type: ADME, organism-based
Design: time 0 - last, dose 20 mg/kg, route oral
Conditions: plasma
endpointLabel: AUC(0-t)

So what does the record say about AUC(0-t) for `CC(=O)N1CCC(n2cc(-c3cnc(N)c4oc(-c5csc6cnccc56)cc34)cn2)CC1` ?
21 ng·h/mL

---

Assay: Oral bioavailability in mouse at 20 mg/kg
Format: ADME, organism-based
Conditions: in vivo
So I've got a bunch of compounds here, and I need their bioavailability values.
Just the number in %, nothing appended.

So what does the record say about bioavailability for `Nc1ncc(-c2cnn([C@H]3CC[C@H](O)CC3)c2)c2c(C(F)F)c(-c3cccc4nnsc34)oc12` ?
98

Another compound: `Nc1ncc(-c2cnn([C@H]3CC[C@H](O)CC3)c2)c2cc(-c3cccc4cnsc34)oc12`
27

Another compound: `CC(=O)N1CCC(n2cc(-c3cnc(N)c4oc(-c5csc6cnccc56)cc34)cn2)CC1`
1

Another compound: `Nc1ncc(-c2cnn([C@H]3CC[C@H](O)CC3)c2)c2c(Cl)c(-c3cccc4nnsc34)oc12`
52

Data provenance: ChEMBL document CHEMBL2407065
